Cited source: paper PMC2810339

- SYSTEM_NAME: NRTI-sensitive RT (93JP-NH1), purified p51/p66 heterodimer
- ASSAY_DETAILS: RNA-dependent DNA polymerase activity, dTTP incorporation into poly (rA)·p(dT)12-18, steady-state kinetics
- CONDITION_PARAMETERS: ATP binding to RT-template-primer complex (RT complex 1)
QUANTITY_MEASURED: Ki (mM)
Numbers only; they are read as mM.

INPUT: Which Ki reading was recorded for the molecule Nc1ncnc2c1ncn2[C@@H]1O[C@H](COP(=O)(O)OP(=O)(O)OP(=O)(O)O)[C@@H](O)[C@H]1O ?
OUTPUT: 2.9

---

- SYSTEM_NAME: multi-NRTI-resistant RT (ERT-mt6), purified p51/p66 heterodimer
- ASSAY_DETAILS: RNA-dependent DNA polymerase activity, dTTP incorporation into poly (rA)·p(dT)12-18, steady-state kinetics
- CONDITION_PARAMETERS: ATP binding to RT-template-primer complex (RT complex 1)
QUANTITY_MEASURED: pKi
To interpret pKi, take it as minus log10 of a concentration measured in moles per litre.

INPUT: I would be grateful if you could share the reported pKi for Nc1ncnc2c1ncn2[C@@H]1O[C@H](COP(=O)(O)OP(=O)(O)OP(=O)(O)O)[C@@H](O)[C@H]1O .
OUTPUT: 2.55
